METHOD SUMMARY: in vivo
MEASUREMENT CONTEXT: mouse, iv
PROPERTY MEASURED: selectivity ratio

COMPOUND | selectivity ratio
CCCCCN(CCCOC)C(=O)C(CCC(=O)O)NC(=O)c1ccc(C)c(C)c1 (stereo not drawn) | 677

Dear reader, for each entry below, please note its selectivity ratio.
1. COCCCN(CCC(C)C)C(=O)C(CCC(=O)O)NC(=O)c1ccc(Cl)c(Cl)c1 (stereo not drawn)
2. CCCCCN(CCCOC)C(=O)C(CCC(=O)O)NC(=O)c1ccc(F)c(F)c1 (stereo not drawn)
3. CCCCCN(CCCOC)C(=O)C(CC(=O)O)NC(=O)c1ccc(Cl)c(Cl)c1 (stereo not drawn)
4. CCCCCN(CCOCC)C(=O)C(CCC(=O)O)NC(=O)c1ccc(Cl)c(Cl)c1 (stereo not drawn)
5. COCCCN(CCCC(C)C)C(=O)C(CCC(=O)O)NC(=O)c1ccc(Cl)c(Cl)c1 (stereo not drawn)

[out]
1: 401; 2: 386; 3: 431; 4: 3380; 5: 343

# map each compound to its selectivity ratio
1. CCCN(CCC)C(=O)C(CCC(=O)O)NC(=O)c1ccccc1 (stereo not drawn) [Proglumide, reference compound]
2. CCCCCN(CCCOCC)C(=O)C(CCC(=O)O)NC(=O)c1ccc(Cl)c(Cl)c1 (stereo not drawn)
3. CCCCCN(CCOC)C(=O)C(CCC(=O)O)NC(=O)c1ccc(Cl)c(Cl)c1 (stereo not drawn)

[out]
34
397
713
